# Tested on: P. falciparum stage V gametocytes
# Set-up: BacTiter-Glo ATP luminescence viability of purified stage V gametocytes in 384-well plates, per cent inhibition versus DMSO
# Measurement Conditions: 48 h, 5 µM; inhibitor
The whole screen tested about 13,000 compounds, of which about 3,200 (25%) showed an effect of 50% or more. This is one part of the list.
Metric Name: % Inhibition (%)

- Molecule: "Cc1nc2nc(N)nc(N)c2c(C)c1Cc1ccc(Cl)cc1 [TCMDC-137659]"
  Scale Unit: "%"
  Assay Value: 18.29
- Molecule: "Cc1cc2c(/C=C/C(=O)NC3CCC(CCN4CCc5ccc(C#N)cc5CC4)CC3)cccc2[nH]1 (stereo not drawn) [TCMDC-139674]"
  Scale Unit: "%"
  Assay Value: -23
- Molecule: "CC(C)CC(=O)N1CCNC[C@@H]1C(=O)NCc1ccc(Cl)c(Cl)c1 [TCMDC-141242]"
  Scale Unit: "%"
  Assay Value: 45.03
- Molecule: "c1cc(CNCC2CCN(CC3CCCCC3)CC2)cc(-n2ccnc2)c1 [TCMDC-141675]"
  Scale Unit: "%"
  Assay Value: 21.38
- Molecule: "CCc1nc(N)nc(N)c1-c1ccc(Cl)cc1 [TCMDC-125860]"
  Scale Unit: "%"
  Assay Value: 8.374
- Molecule: "Cn1cc(C(=O)Nc2cccc(-c3cccc(-c4nc5ccccc5[nH]4)c3)c2)n(C)c1=O [TCMDC-137135]"
  Scale Unit: "%"
  Assay Value: -5.62
- Molecule: "Cc1ccc(NC(=O)NC2CCN(c3ccnc4cc(Cl)ccc34)C2)cc1 (stereo not drawn) [TCMDC-133651]"
  Scale Unit: "%"
  Assay Value: 27.92
- Molecule: "C(=N\\Nc1nccc2sc(-c3cccnc3)cc12)/c1cccnc1 [TCMDC-135297]"
  Scale Unit: "%"
  Assay Value: -1.822
- Molecule: "CCCOc1ccc(-c2nonc2NC(=O)c2ccccc2OC)cc1OCCC [TCMDC-124766]"
  Scale Unit: "%"
  Assay Value: 53.56
